# system-name: glutathione-S-transferase (GST) tagged LXRbeta LBD (ligand binding domain) (Homo sapiens, UniProt P55055)
# Construct: purchased Invitrogen pv4658.pps
# Sequence (P55055 222-460 limits assumed): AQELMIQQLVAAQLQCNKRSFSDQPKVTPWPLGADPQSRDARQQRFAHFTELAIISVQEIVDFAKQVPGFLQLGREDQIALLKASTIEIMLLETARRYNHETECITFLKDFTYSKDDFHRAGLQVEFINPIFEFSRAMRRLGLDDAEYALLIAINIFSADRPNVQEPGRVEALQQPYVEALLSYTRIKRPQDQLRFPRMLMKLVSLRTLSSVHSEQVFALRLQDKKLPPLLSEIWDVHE
# assay-procedure: LanthaScreen TR-FRET Liver X Receptor Coactivator Assay, LXR beta-LBD
# Assay type: biochemical
# details: efficacy in relation to reference dual agonist T1317; read-out: LXR beta activity at max dose (%) (Emax)
endpoint-name: Emax (%)

{"compound": "CN(C)C(=O)c1ccc(-c2cnc(N3CCN(S(=O)(=O)C(F)F)CC3)c(C#N)c2)cc1Cl", "endpoint-name": "Emax", "reported-result": 93}
{"compound": "CN(CC#N)C(=O)c1ccc(-c2cnc(N3CCN(C(=O)OC(C)(C)C)CC3)c(C#N)c2)cc1Cl", "endpoint-name": "Emax", "reported-result": 91}
{"compound": "CN(C)C(=O)c1c(Cl)cc(-c2cnc(N3CC4CCC3CN4C(=O)OC(C)(C)C)c(C#N)c2)cc1Cl (centres unmarked)", "endpoint-name": "Emax", "reported-result": 62}
{"compound": "Cc1cc(CC(=O)N2CCN(c3ncc(-c4ccc(C(=O)N(C)C)c(Cl)c4)cc3C#N)CC2)on1", "endpoint-name": "Emax", "reported-result": 46}
{"compound": "CN(C)C(=O)c1ccc(-c2cnc(N3CCN(S(=O)(=O)c4ccccc4OC(F)(F)F)CC3)c(C#N)c2)cc1Cl", "endpoint-name": "Emax", "reported-result": 99}
{"compound": "CN(C)C(=O)c1ccc(-c2cnc(N3CC4CCC(C3)N4C(=O)OC(C)(C)C)c(C#N)c2)cc1Cl", "endpoint-name": "Emax", "reported-result": 71}
{"compound": "CN(C)C(=O)c1ccc(-c2cnc(N3CCN(C(=O)Cc4c[nH]c5ccccc45)CC3)c(C#N)c2)cc1Cl", "endpoint-name": "Emax", "reported-result": 83}
{"compound": "CN(C)C(=O)c1ccc(-c2cnc(N3CCN(S(=O)(=O)c4c(Cl)cccc4C(F)(F)F)CC3)c(C#N)c2)cc1Cl", "endpoint-name": "Emax", "reported-result": 126}
{"compound": "CN(C)C(=O)c1ccc(-c2cnc(N3CCN(C(=O)OC(C)(C)C)CC3)c(Cl)c2)cc1Cl", "endpoint-name": "Emax", "reported-result": 61}
{"compound": "CN(C)C(=O)c1ccc(-c2ccc(N3CC4CCC(C3)N4S(=O)(=O)c3c(Cl)cccc3Cl)cc2)cc1Cl", "endpoint-name": "Emax", "reported-result": 118}
{"compound": "CN(C)C(=O)c1ccc(-c2cnc(N3CCN(S(=O)(=O)c4c(F)cccc4F)CC3)c(C#N)c2)cc1Cl", "endpoint-name": "Emax", "reported-result": 98}
{"compound": "CN(C)C(=O)c1ccc(-c2cnc(N3CCN(S(=O)(=O)c4ccccc4F)CC3)c(C#N)c2)cc1Cl", "endpoint-name": "Emax", "reported-result": 89}
{"compound": "C=CCN(C(=O)c1ccc(-c2cnc(N3CCN(C(=O)OC(C)(C)C)CC3)c(C#N)c2)cc1Cl)C1CCS(=O)(=O)C1 (centres unmarked)", "endpoint-name": "Emax", "reported-result": 78}
{"compound": "CN(C)C(=O)c1ccc(-c2cnc(N3CCN(S(=O)(=O)c4ccccc4C(F)(F)F)CC3)c(C#N)c2)cc1Cl", "endpoint-name": "Emax", "reported-result": 127}

---

# system-name: glutathione-S-transferase (GST) tagged LXRbeta LBD (ligand binding domain) (Homo sapiens, UniProt P55055)
# Construct: purchased Invitrogen pv4658.pps
# assay-procedure: LanthaScreen TR-FRET Liver X Receptor Coactivator Assay, LXR beta-LBD
# Assay type: biochemical
# details: potency (Inflection Point) of co-activator recruitment, TR-FRET; read-out: LXR beta IP
pEC50: −log10 of the molar value.
endpoint-name: pEC50

{"molecule": "CN(C)C(=O)c1ccc(-c2cnc(N3CC4CCC3CN4C(=O)OC(C)(C)C)c(C#N)c2)cc1Cl (stereo not shown) [Example 8-8]", "reported-result": 7.19}
{"molecule": "COc1cc(-c2cnc(N3CCN(C(=O)OC(C)(C)C)CC3)c(C#N)c2)ccc1C(=O)N(C)C [Example 8-2]", "reported-result": 6.07}
{"molecule": "CN(C)C(=O)c1ccc(-c2cnc(N3CCN(C(=O)C(O)(CCc4ccccc4)C(F)(F)F)CC3)c(C#N)c2)cc1Cl (stereo not shown) [Example 2-37]", "reported-result": 6.13}
{"molecule": "CC(C)C(=O)C(=O)N1CCN(c2ncc(-c3cc(Cl)c(C(=O)N(C)C)c(Cl)c3)cc2C#N)CC1 [Example 7-2]", "reported-result": 7.49}
{"molecule": "CN(C)C(=O)c1ccc(-c2cnc(N3CCN(C(=O)OCc4ccccc4Cl)CC3)c(C#N)c2)cc1Cl [Example 3-9]", "reported-result": 6.81}
{"molecule": "CN(CCn1cncn1)C(=O)c1ccc(-c2cnc(N3CCN(C(=O)C(C)(C)c4ccccc4)CC3)c(C#N)c2)cc1Cl [Example 6-3]", "reported-result": 7.52}
{"molecule": "CN(CC(O)c1ccc(O)cc1)C(=O)c1ccc(-c2cnc(N3CCN(C(=O)OC(C)(C)C)CC3)c(C#N)c2)cc1Cl (stereo not shown) [Example 5-31]", "reported-result": 5.73}

# credit: patent US10239849B2
